Where these numbers come from: PubChem BioAssay AID688

Test: mutant yeast GCN4 reporter luminescence inhibitors – S. cerevisiae, eIF2B-epsilon R284H, Beta-Glo luminescence, primary screen (AID 688)
Conditions: GCN4-lacZ luminescence; stronger effect = higher value, screened at 25 µM (by protocol)
The campaign covered roughly 27,000 compounds. About 250 (0.93%) were called active. Shown is part of a subset that was picked to be rich in actives.
inhibition of -10% or higher: met. Under -10%: not met.

Problem: Is reported inhibition greater than or equal to -10% here: `CCOC(=O)c1ccccc1NS(=O)(=O)c1ccc(OC)cc1`
Solution: not met

Problem: # bool: inhibition of `Cc1cccc(C)c1NC(=O)CCCSc1nnc(-c2ccco2)n1-c1ccccc1` >= -10%
Solution: not met

Problem: I'd appreciate it if you could say whether `COCC(=O)Nc1ccc(Br)cc1` has inhibition at least equal to -10%.
Solution: not met

Problem: Dear colleague, could you confirm whether `CCOc1ccc(NC(=O)CN2CCN(CC(=O)Nc3ccc(OC)cc3)CC2)cc1` has inhibition at or above -10%?
Solution: not met

Problem: Does the reported inhibition for `Cc1cccc(N2C(=O)c3cccnc3C2=O)c1` fall at or above the -10% mark?
Solution: met

Problem: Does `CCOn1c(SC(C)C)nc2ccccc2c1=O` have a reported inhibition of at least -10%?
Solution: met

Problem: Dear colleague, could you confirm whether `CC(C)(C)NC(=O)c1cc(NC(=O)c2ccco2)cc(NC(=O)c2ccco2)c1` has inhibition at or above -10%?
Solution: met

Problem: Determine whether measured inhibition meets or exceeds -10% for `Cc1nc2c(c(=O)n1Cc1ccco1)c1nc3ccccc3nc1n2Cc1ccccc1`
Solution: met

Problem: Given CCCCNC(=O)C1CCCNC1=O (configuration not stated) , state whether its inhibition is at least -10%.
Solution: met

Problem: Could you please find out whether `COc1cc(OC)nc(NC(=O)CCl)n1` has inhibition that meets -10% or exceeds it?
Solution: met

Problem: Does the reported inhibition for `CCCCCCNCCn1cnc2c(N)ncnc21` fall at or above the -10% mark?
Solution: met

###

Test: mutant yeast GCN4 reporter luminescence inhibitors – S. cerevisiae, eIF2B-epsilon R284H, Beta-Glo luminescence, primary screen (AID 688)
Settings: GCN4-lacZ luminescence; measured here: mutant yeast growth, toxicity, concentration not given here
Hit rate of the full screen: of about 27,000 compounds, about 250 (0.93%) were called active. This is one part of a sample in which actives are shown more often than they occur.
recorded.metric: growth inhibition (%)
Form entry: value (%) — number only.

Would you please look over these solved cases?
| molecule | value.measured |
| --- | --- |
| Cc1ccnc(NC(=O)c2ccc(NC(=O)c3ccco3)cc2)c1 | -8.33 |
| CCn1c(=O)cc(O)c2ccccc21 | 11.1 |
| COc1ccc(-n2nnnc2SCC(=O)Nc2ccccc2)cc1 | -13.6 |
| Cn1c(SCC(=O)C(C)(C)C)nnc1-c1ccccn1 | 12.8 |

Problem: Fill in the blank: the reported growth inhibition of `COCC(=O)Nc1ccc(Br)cc1` is ____.
Solution: -9.52

Problem: Please look up its growth inhibition: O=C(NC(C(=O)NCCN1CCOCC1)C12CC3CC(CC(C3)C1)C2)C1CCCCC1 (configuration not stated)
Solution: 28.1

Problem: Return reported growth inhibition; argument: COC(=O)C1=C(C)Nc2ncnn2C1c1cccnc1 (configuration not stated)
Solution: 10

###

Assay: mutant yeast GCN4 reporter luminescence inhibitors – S. cerevisiae, eIF2B-epsilon R284H, Beta-Glo luminescence, primary screen (AID 688)
Conditions: GCN4-lacZ luminescence; stronger effect = higher value, screened at 25 µM (by protocol)
Screen size: about 27,000 compounds; about 250 (0.93%) were called active. Many of the other results were omitted from the sample, so actives are more common in it than they were.
recorded.metric: inhibition (%)
Numeric only. Scale: %

Solved entries:
| compound | inhibition (%) |
| --- | --- |
| Cc1cc2nnc(SCC(=O)N3CCN(c4ccccc4)CC3)n2c(N)n1 | 24.8 |
| COc1ccc(OC)c(-n2nnnc2SCC(=O)Nc2cc(C)ccc2OC)c1 | 30.4 |

Problem: Item under review: `O=C(O)CSCC(=O)Nc1cccc(C(F)(F)F)c1` . Reported inhibition?
Solution: 21.9

Problem: Consider the compound shown here: `CCn1nnc(NC(=O)c2cc(Cl)c(OC)c(Cl)c2)n1` What is its recorded inhibition?
Solution: 17.4

Problem: Report inhibition for `CC/C(=N\O)C(C)(C)/[N+]([O-])=C/c1ccc(Br)cc1` please.
Solution: 9.15

Problem: Fill in the blank: the reported inhibition of COc1ccc(-n2c(SCC(=O)Nc3ccc4c(c3)OCO4)nnc2C(C)N2CCCCC2)cc1 (stereo unspecified) is ____.
Solution: 32

Problem: I would be grateful if you could share the reported inhibition for `CN(C(=O)COc1ccccc1)c1nnc(-c2ccncc2)s1` .
Solution: 10.2

Problem: What value of inhibition has been recorded for this entry: `O=C(CN1C(=O)CC(c2ccccc2)=Nc2ccccc21)NC1CCCCC1`
Solution: 18.7

Problem: # query: inhibition of entry `Cc1ccc(C(=O)Nc2ccccc2C(=O)NC2CCCCC2)cc1S(=O)(=O)N1CCOCC1`
Solution: 29

###

Experiment: mutant yeast GCN4 reporter luminescence inhibitors – S. cerevisiae, eIF2B-epsilon R284H, Beta-Glo luminescence, primary screen (AID 688)
Conditions: GCN4-lacZ luminescence; measured here: mutant yeast growth, toxicity, concentration not given here
Hit rate of the full screen: of about 27,000 compounds, about 250 (0.93%) were called active. Many of the other results were omitted from the sample, so actives are more common in it than they were.
The threshold is inclusive: growth inhibition of exactly -10% counts as yes (1); values below receive no (0).

Example entries and their recorded answers appear below.
| compound | classification |
| --- | --- |
| Cc1cc(=O)oc(C)c1C(=O)Nc1cnc2ccccc2c1 | yes (1) |
| O=C1CCCc2nn(-c3ccccc3)nc21 | yes (1) |
| Cc1cccc2c(=O)n3c(nc12)CCCCC3 | yes (1) |
| Cc1cc2nnc(SCC(=O)N3CCN(c4ccccc4)CC3)n2c(N)n1 | no (0) |
| Cc1nnc(SCC(=O)N2CCN(c3ccccc3)CC2)n1-c1ccccc1 | yes (1) |

Problem: Reported growth inhibition reaches at least -10% for CCOC(=O)c1sc(C)c2c1NC(C)(c1cccc3ccccc13)NC2=O (stereo not given) ?
Solution: yes (1)

Problem: Record C=CCSC1=C(C#N)C(c2cc(Br)c(O)c(OC)c2)CC(=O)N1 (stereo not given) ; criterion: growth inhibition no lower than -10%. Met?
Solution: no (0)

Problem: Is growth inhibition for CC(C)CC(N=C1NC(C)(C)Cc2ccccc21)C(=O)O (stereo not given) at or above -10%?
Solution: yes (1)

Problem: Could you please find out whether `CN(Cc1nc2ccccc2c(=O)[nH]1)Cc1cc(=O)oc2ccc3ccccc3c12` has growth inhibition that meets -10% or exceeds it?
Solution: yes (1)

Problem: Does the compound `O=C(CN1C(=O)CC(c2ccccc2)=Nc2ccccc21)NC1CCCCC1` have recorded growth inhibition that is -10% or more?
Solution: no (0)

Problem: Does `CCNc1nc(N)nc(Oc2ccc(OCC)nn2)n1` have a reported growth inhibition of at least -10%?
Solution: no (0)

Problem: # bool: growth inhibition of O=C(Nc1ccc(Br)cc1)c1cccc(NC(=O)C2C3CC4OC(=O)C2C4C3)c1 (stereo not given) >= -10%
Solution: yes (1)

Problem: Is the recorded value of growth inhibition equal to or greater than -10% for this compound? CCN(CC)CCCN1C(=O)C(=O)/C(=C(/O)c2c(C)nc3ccccn23)C1c1ccc(C)o1 (stereo not given)
Solution: yes (1)

Problem: Decide: growth inhibition of COc1ccc(C2CC(=O)C=C(NCC3CCCO3)C2)cc1 (stereo not given) >= -10%?
Solution: yes (1)

Problem: Given the entry CCOCN(C(=O)Cn1c(C(C)O)nc2ccccc21)c1c(C)cccc1CC (stereo not given) , answer whether its growth inhibition meets or surpasses -10%.
Solution: yes (1)

###

Experiment: mutant yeast GCN4 reporter luminescence inhibitors – S. cerevisiae, eIF2B-epsilon R284H, Beta-Glo luminescence, primary screen (AID 688)
Conditions: GCN4-lacZ luminescence; stronger effect = higher value, screened at 25 µM (by protocol)
Screen size: about 27,000 compounds; about 250 (0.93%) were called active. Many of the other results were omitted from the sample, so actives are more common in it than they were.
recorded.metric: inhibition

| compound | inhibition |
| --- | --- |
| CC(C)C(NC(=O)c1ccc(Cl)cc1)C(=O)O (configuration not stated) | 27.4% (inactive) |
| CCCC(=O)N(CCc1ccccc1)Cc1nc2ccccc2c(=O)[nH]1 | -3.55% (inactive) |
| CCC(C(=O)NCc1ccc(OC)cc1)n1nc(C)n2c(cc3occc32)c1=O (configuration not stated) | 47% (inactive) |
| C=CCSC1=C(C#N)C(c2cc(Br)c(O)c(OC)c2)CC(=O)N1 (configuration not stated) | 17.8% (inactive) |
| CCCCCCc1cc2cc(-c3nnc(-c4cccc(OC)c4)o3)c(=O)oc2cc1O | -37.6% (inactive) |
| CCOc1ccccc1N=C1NC(=O)CS1 | -14.3% (inactive) |
| COc1ccc(CNCCCO)cc1OC | -1.06% (inactive) |
| O=C(O)c1cc(S(=O)(=O)N2CCCCCC2)c(Cl)cc1Cl | 8.58% (inactive) |
| Cc1nn(C)cc1CNC(=O)Nc1ccc(Cl)cc1 | -9.58% (inactive) |
| Cc1ccc(C(=O)N/N=C/c2sc(=O)n(Cc3cccc(C(=O)O)c3)c2Cl)cc1 | 18.2% (inactive) |

Problem: Tell me the measured inhibition of `C/C(=N\NS(=O)(=O)c1ccc(Br)cc1)c1cccs1` , please.
Solution: 11% (inactive)

Problem: So what's the measured inhibition for this one? `C/C=C/C(=O)OCC(=O)Nc1ccc(F)cc1Cl`
Solution: 19.8% (inactive)
